Would you kindly list PDGF Kinase % Inhibition (P.119) for each of these compounds?
- Test system: PDGF-R
- PROCEDURE SUMMARY: PDGF-R Assay (cellular ELISA, U1242 cells)
- Format: cell-based
- Design: concentration or dose not given beside the values
- CONDITION SUMMARY: protocol P.119
Write the answer as a number in %, unit excluded.

Fill blank: measured PDGF Kinase % Inhibition (P.119) of the compound CN(C)CCCOc1ccc(C=C2C(=O)Nc3ccc(S(=O)(=O)Nc4ccc(C(F)(F)F)cc4)cc32)cc1 [10739/E09] is ____.
18.3

Report PDGF Kinase % Inhibition (P.119) for CN(C)CCCOc1ccc(C=C2C(=O)Nc3ccc(S(=O)(=O)N4CCOCC4)cc32)cc1 [10739/F09] please.
3.3

Data request, read-out PDGF Kinase % Inhibition (P.119), for O=C1Nc2ccc(CCCl)cc2C1=Cc1ccc(CO)o1 [10739/G11]
7.6
